assay: Total body clearance in ddY mouse at 1 mg/kg, iv by LC-MS/MS analysis; type: ADME, organism-based; settings: in vivo
Measure: clearance (mL/min/kg)

a: Cc1cn(-c2cncc(C(F)(F)F)c2)c2ccc(C(=O)NS(=O)(=O)C3CC3)cc12
b: Cc1cn(-c2cccc(F)c2)c2ccc(C(=O)NS(=O)(=O)C3CC3)cc12
Smaller clearance value, a vs b ? Return value: the label identifying the chosen record. a
(a: 1.01 mL/min/kg, b: 2.58 mL/min/kg)

---

assay: AUC(0 to 24 hrs) in ddY mouse at 1 mg/kg, po by LC-MS/MS analysis; type: ADME, organism-based; design: dose 1 mg/kg, route po; conditions: in vivo
Measure: AUC(0-t) (µM·h)

I: Cc1cn(-c2cncc(C(F)(F)F)c2)c2cc(F)c(C(=O)NS(=O)(=O)C3CC3)cc12
II: Cc1cn(-c2cncc(C(F)(F)F)c2)c2ccc(C(=O)NS(=O)(=O)C3CC3)cc12
III: Cc1cn(-c2cccc(F)c2)c2ccc(C(=O)NS(=O)(=O)C3CC3)cc12
Hey, can you sort those compounds up there by AUC(0-t), smallest first? Please express your ranking as an ordered list of the labels. III, I, II

---

test: Volume of distribution at steady state in ddY mouse at 1 mg/kg, iv by LC-MS/MS analysis; format: ADME, organism-based; conditions: in vivo, read-out: Vdss
Measure: Vd (L/kg)

| Structure Smiles | Measure | Meas Value |
| --- | --- | --- |
| Cc1cn(-c2cncc(C(F)(F)F)c2)c2ccc(C(=O)NS(=O)(=O)C3CC3)cc12 | Vd | 0.81 |
| Cc1cn(-c2cccc(F)c2)c2ccc(C(=O)NS(=O)(=O)C3CC3)cc12 | Vd | 0.57 |

---

molecular target: Sodium channel protein type 5 subunit alpha/beta-1/beta-2 (Homo sapiens); assay: Inhibition of human Nav1.5/beta1/2 transfected in HEK293-A cells assessed as inhibition of channel current incubated for 5.5 mins by high-throughput electrophysiology system analysis; type: toxicity, cell-based
Sequence (Q14524 whole entry): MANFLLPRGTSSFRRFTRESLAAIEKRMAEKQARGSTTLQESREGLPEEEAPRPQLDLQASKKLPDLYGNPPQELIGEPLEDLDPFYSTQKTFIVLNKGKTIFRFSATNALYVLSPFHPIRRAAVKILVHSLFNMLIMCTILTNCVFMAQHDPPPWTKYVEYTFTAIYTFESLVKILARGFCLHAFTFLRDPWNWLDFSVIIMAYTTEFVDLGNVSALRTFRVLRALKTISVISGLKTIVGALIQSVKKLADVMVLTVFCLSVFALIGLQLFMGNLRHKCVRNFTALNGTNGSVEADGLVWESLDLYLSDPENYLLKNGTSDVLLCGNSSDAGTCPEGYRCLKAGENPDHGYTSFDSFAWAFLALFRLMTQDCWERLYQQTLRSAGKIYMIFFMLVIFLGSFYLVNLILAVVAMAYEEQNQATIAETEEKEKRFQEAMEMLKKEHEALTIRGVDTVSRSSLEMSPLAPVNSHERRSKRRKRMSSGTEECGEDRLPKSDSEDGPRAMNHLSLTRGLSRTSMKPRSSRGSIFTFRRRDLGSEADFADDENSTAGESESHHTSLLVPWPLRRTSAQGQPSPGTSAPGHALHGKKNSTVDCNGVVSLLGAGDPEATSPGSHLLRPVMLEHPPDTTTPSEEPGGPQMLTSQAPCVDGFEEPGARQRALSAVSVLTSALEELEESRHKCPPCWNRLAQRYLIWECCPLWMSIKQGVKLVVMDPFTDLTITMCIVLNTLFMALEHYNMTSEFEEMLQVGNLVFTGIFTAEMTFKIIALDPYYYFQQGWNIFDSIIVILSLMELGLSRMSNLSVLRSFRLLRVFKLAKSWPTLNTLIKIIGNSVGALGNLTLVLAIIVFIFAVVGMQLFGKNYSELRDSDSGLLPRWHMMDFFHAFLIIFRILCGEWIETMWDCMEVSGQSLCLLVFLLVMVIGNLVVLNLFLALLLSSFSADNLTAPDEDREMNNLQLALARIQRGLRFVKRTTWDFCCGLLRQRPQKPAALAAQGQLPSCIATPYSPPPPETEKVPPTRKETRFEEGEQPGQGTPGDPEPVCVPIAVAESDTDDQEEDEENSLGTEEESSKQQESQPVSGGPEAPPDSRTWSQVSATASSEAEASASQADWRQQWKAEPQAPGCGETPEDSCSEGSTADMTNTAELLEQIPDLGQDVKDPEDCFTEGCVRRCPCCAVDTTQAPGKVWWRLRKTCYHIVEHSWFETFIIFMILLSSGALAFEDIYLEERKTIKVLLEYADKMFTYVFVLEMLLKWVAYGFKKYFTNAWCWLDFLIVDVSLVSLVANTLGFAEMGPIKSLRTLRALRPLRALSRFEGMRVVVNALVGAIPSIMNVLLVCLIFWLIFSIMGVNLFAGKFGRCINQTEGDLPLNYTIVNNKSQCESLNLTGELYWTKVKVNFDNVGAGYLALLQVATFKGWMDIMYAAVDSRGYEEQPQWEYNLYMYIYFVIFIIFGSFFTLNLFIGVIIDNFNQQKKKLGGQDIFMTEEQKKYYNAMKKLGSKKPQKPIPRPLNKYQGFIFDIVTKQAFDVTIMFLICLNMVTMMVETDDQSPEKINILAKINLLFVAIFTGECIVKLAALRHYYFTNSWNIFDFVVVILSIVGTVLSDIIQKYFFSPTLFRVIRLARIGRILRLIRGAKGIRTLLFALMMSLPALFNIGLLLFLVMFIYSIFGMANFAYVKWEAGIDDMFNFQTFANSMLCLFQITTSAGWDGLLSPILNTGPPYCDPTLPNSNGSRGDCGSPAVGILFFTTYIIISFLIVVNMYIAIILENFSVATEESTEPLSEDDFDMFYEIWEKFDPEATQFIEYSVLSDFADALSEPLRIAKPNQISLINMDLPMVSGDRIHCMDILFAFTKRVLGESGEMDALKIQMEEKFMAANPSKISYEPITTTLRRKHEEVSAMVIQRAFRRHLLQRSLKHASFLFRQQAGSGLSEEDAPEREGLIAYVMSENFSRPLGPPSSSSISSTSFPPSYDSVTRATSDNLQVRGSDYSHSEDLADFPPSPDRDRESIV
Sequence (O60939 whole entry, further chain): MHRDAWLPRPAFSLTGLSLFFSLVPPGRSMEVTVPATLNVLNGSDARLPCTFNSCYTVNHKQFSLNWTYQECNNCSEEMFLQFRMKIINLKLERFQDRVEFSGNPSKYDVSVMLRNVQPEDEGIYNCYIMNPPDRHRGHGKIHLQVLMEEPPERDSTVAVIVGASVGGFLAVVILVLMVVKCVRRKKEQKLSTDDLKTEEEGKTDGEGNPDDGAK
Sequence (Q07699 whole entry, further chain): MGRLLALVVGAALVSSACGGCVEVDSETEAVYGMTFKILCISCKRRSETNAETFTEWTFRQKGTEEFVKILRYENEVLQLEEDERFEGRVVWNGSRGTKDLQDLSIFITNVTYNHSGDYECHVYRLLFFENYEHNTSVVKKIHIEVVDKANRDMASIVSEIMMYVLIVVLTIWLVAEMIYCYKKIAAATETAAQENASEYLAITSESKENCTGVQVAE
Catalogue of IC50 readings, one per entry.
Lab book: enter the figure in µM, no units written.

Observe how each entry below is paired with its result.
| Structure Smiles | Target Or Test System | Reading Unit | Meas Value |
| --- | --- | --- | --- |
| Cc1cn(-c2ccccc2F)c2ccc(C(=O)NS(C)(=O)=O)cc12 | Sodium channel protein type 5 subunit alpha/beta-1/beta-2 (Homo sapiens) | µM | 100 |
| Cc1cn(-c2cncc(C(F)(F)F)c2)c2cc(F)c(C(=O)NS(=O)(=O)C3CC3)cc12 | Sodium channel protein type 5 subunit alpha/beta-1/beta-2 (Homo sapiens) | µM | 32 |
| Cc1cn(-c2cccc(C(F)(F)F)c2)c2ccc(C(=O)NS(C)(=O)=O)cc12 | Sodium channel protein type 5 subunit alpha/beta-1/beta-2 (Homo sapiens) | µM | 27 |
| Cc1cn(-c2ccccc2)c2ccc(C(=O)NS(C)(=O)=O)cc12 | Sodium channel protein type 5 subunit alpha/beta-1/beta-2 (Homo sapiens) | µM | 79 |
| Cc1cn(-c2cccc(Cl)c2)c2ccc(C(=O)NS(C)(=O)=O)cc12 | Sodium channel protein type 5 subunit alpha/beta-1/beta-2 (Homo sapiens) | µM | 34 |

response.value for Cc1cn(-c2ccc(Cl)cc2)c2ccc(C(=O)NS(C)(=O)=O)cc12 (field: IC50) = 23
